Biological target: α2 adrenoceptors (cortex, mostly α2A) (Ovis aries, UniProt A0ACI6PY47)
Assay: [3H]RX821002 binding
Parameters: species or system sheep
Details: read-out: KDB2; cortex; vs [3H]RX821002; two-state dimer model, second protomer
pKd: −log10 of the molar value. Structures can show the parent of a compound that is named as a salt.
resultType: pKd

- compound: "CCCN(C/C=C/I)C1CCc2ccc(O)cc2C1 (centres unmarked) [7-OH-PIPAT, 7-OH-PIPAT maleate]"
  resultType: "pKd"
  recordedNumber: 6.37
- compound: "Cc1ncc(CN2CC=C(c3ccccc3)CC2)c(N)n1.Cl.Cl [RO-105824, RO-105824 dihydrochloride]"
  resultType: "pKd"
  recordedNumber: 5.40

###

Recorded Kd, one value per entry.
Target: α2 adrenoceptors (cortex, mostly α2A) (Ovis aries)
Assay: [3H]RX821002 binding
Parameters: species or system sheep
Details: read-out: KDB1; cortex; vs [3H]RX821002; two-state dimer model, first protomer
Where a name gives a salt, the structure may show the parent alone.
resultType: Kd (nM)

- molecule: "Cc1ncc(CN2CC=C(c3ccccc3)CC2)c(N)n1.Cl.Cl [RO-105824, RO-105824 dihydrochloride]"
  measuredOn: "α2 adrenoceptors (cortex, mostly α2A) (Ovis aries)"
  resultType: "Kd"
  scaleUnit: "nM"
  recordedNumber: 0.055
- molecule: "CCCN(C/C=C/I)C1CCc2ccc(O)cc2C1 (centres unmarked) [7-OH-PIPAT, 7-OH-PIPAT maleate]"
  measuredOn: "α2 adrenoceptors (cortex, mostly α2A) (Ovis aries)"
  resultType: "Kd"
  scaleUnit: "nM"
  recordedNumber: 9

###

Molecular target: α2C adrenoceptor (Homo sapiens, UniProt P18825)
Sequence (P18825 1-462): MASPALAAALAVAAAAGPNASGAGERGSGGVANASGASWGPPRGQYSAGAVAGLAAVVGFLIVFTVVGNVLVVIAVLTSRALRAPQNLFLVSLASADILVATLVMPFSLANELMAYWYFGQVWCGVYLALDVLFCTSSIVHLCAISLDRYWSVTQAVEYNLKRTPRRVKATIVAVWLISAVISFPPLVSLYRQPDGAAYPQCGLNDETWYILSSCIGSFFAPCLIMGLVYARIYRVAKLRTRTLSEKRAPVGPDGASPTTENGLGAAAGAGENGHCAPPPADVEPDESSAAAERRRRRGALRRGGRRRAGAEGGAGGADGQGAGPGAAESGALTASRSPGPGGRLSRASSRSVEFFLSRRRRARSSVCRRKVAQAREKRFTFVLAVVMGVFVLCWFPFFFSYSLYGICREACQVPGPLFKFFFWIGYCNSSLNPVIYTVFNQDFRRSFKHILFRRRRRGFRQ
Test: cell-based
pEC50: −log10 of the molar value.

- compound: "NC[C@H](O)c1ccc(O)c(O)c1 [NE]"
  pEC50: 8.15

###

Target: α2 adrenoceptors (striatum, α2A and α2C)
Assay: [3H]RX821002 binding
Parameters: species or system sheep
Details: read-out: affinity value (KDA1) of the radioligand; saturation experiments, striatal tissue, n=4-8
pKd: −log10 of the molar value.
resultType: pKd

- compound: "COC1(C2=NCCN2)COc2ccccc2O1 (stereo not shown) [[^3H]RX821002]"
  measuredOn: "α2 adrenoceptors (striatum, α2A and α2C)"
  recordedNumber: 10.15
